target: Proteasome Macropain subunit (Homo sapiens) (UniProt P49721); assay: Inhibition of 20s immunoproteasome beta2 trypsin-like activity in human spleen using Boc-Leu-Arg-Arg-AMC as substrate at 50 uM after 10 mins by fluorescence assay relative to control
Sequence (P49721 whole entry): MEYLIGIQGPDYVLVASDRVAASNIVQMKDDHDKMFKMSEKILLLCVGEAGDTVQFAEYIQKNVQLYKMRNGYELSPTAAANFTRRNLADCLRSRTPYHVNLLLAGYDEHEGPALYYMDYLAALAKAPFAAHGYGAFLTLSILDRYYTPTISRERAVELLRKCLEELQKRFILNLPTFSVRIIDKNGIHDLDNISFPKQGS
Activity calls are given as the source filed them. The calls are words filed in the database; no cut-off is given here.
Observation Type: inhibition

Chemical Smiles | Test Target | Assay Result
COc1ccc(/C=C2\NC(=S)N(c3ccccc3)C2=O)cc1OC | Proteasome Macropain subunit (Homo sapiens) (UniProt P49721) | 50%
COc1ccc(/C=C2\NC(=S)N(c3ccccc3)C2=O)cc1 | Proteasome Macropain subunit (Homo sapiens) (UniProt P49721) | 29%
O=C1/C(=C/c2cccc(Oc3ccccc3)c2)NC(=S)N1c1ccccc1 | Proteasome Macropain subunit (Homo sapiens) (UniProt P49721) | 32%
COc1ccc(/C=C2\NC(=S)N(c3ccccc3)C2=O)cc1O | Proteasome Macropain subunit (Homo sapiens) (UniProt P49721) | 45%
O=C1CNC(=S)N1c1cccc2ccccc12 | Proteasome Macropain subunit (Homo sapiens) (UniProt P49721) | inactive
O=C1/C(=C/c2ccc(Oc3ccccc3)cc2)NC(=S)N1c1ccccc1 | Proteasome Macropain subunit (Homo sapiens) (UniProt P49721) | 53%
COc1cccc(/C=C2\NC(=S)N(c3ccccc3)C2=O)c1 | Proteasome Macropain subunit (Homo sapiens) (UniProt P49721) | 18%

Now for another entry.
Query string: Item under review: O=C1CNC(=S)N1c1ccccc1 . Reported inhibition?
Result string: inactive

====

Target: Proteasome Macropain subunit MB1 (Homo sapiens)
Sequence (P28074 whole entry): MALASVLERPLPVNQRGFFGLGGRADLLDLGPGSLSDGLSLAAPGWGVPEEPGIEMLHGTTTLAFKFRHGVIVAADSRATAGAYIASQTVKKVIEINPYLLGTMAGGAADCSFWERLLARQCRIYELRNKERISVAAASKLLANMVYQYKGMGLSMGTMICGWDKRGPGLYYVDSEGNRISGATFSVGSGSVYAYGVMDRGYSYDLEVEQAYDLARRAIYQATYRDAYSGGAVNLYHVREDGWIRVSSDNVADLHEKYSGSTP
Experiment: Inhibition of 20s constitutive proteasome beta5 chymotrypsin-like activity in human erythrocytes using Suc-Leu-Leu-Val-Tyr-AMC as substrate after 10 mins by fluorescence assay
Observation Type: pKi
Please keep in mind that pKi is minus log10 of the molar concentration; only the number is needed.

Query string: Item under review: COc1ccc(/C=C2\NC(=S)N(c3ccccc3)C2=O)cc1OC . Reported pKi?
Result string: 4.87

Query string: Item under review: COc1cccc(/C=C2\NC(=S)N(c3ccccc3)C2=O)c1 . Reported pKi?
Result string: 4.75

Query string: Item under review: COc1cc(/C=C2\NC(=S)N(c3ccccc3)C2=O)ccc1O . Reported pKi?
Result string: 4.63

====

Molecular target: Proteasome Macropain subunit MB1 (Homo sapiens)
Sequence (whole entry): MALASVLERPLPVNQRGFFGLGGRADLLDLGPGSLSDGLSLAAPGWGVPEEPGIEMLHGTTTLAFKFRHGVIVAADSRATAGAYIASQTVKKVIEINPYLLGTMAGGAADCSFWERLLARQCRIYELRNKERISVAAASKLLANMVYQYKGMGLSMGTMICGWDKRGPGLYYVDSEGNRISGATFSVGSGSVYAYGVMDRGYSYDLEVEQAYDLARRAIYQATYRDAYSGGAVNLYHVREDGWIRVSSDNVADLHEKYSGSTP
Experiment: Inhibition of 20s immunoproteasome beta5 chymotrypsin-like activity in human spleen using Suc-Leu-Leu-Val-Tyr-AMC as substrate at 50 uM after 10 mins by fluorescence assay relative to control
Observation Type: inhibition

Query string: Item under review: O=C1/C(=C/c2ccc(Oc3ccccc3)cc2)NC(=S)N1c1ccccc1 . Reported inhibition?
Result string: 58%

Query string: Item under review: O=C1/C(=C/c2ccc(Oc3ccccc3)cc2)NC(=S)N1c1cccc2ccccc12 . Reported inhibition?
Result string: 56%

Query string: Item under review: CSc1ccc(/C=C2\NC(=S)N(c3ccccc3)C2=O)cc1 . Reported inhibition?
Result string: 50%

Query string: Item under review: O=C1/C(=C/c2cccc(Oc3ccccc3)c2)NC(=S)N1c1ccccc1 . Reported inhibition?
Result string: 56%

Query string: Item under review: O=C1CNC(=S)N1c1ccccc1 . Reported inhibition?
Result string: 53%

====

Target: UniProt:P20618
Sequence (whole entry): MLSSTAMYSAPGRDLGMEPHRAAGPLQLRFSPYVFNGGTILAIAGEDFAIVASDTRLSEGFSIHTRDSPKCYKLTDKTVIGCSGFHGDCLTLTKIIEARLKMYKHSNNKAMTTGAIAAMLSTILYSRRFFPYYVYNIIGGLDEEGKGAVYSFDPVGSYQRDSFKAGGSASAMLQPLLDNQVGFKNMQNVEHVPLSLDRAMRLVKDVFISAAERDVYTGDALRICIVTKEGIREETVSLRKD
Experiment: Inhibition of 20s constitutive proteasome beta1 caspase-like activity in human erythrocytes using Z-Leu-Leu-Glu-AMC as substrate at 50 uM after 10 mins by fluorescence assay relative to control
Assay type: cell-based
Active and inactive are the calls of the source. The rule behind the calls is not given here.
Observation Type: inhibition

Chemical Smiles | inhibition
COc1ccc(/C=C2\NC(=S)N(c3ccccc3)C2=O)cc1O | 28%
COc1cc(/C=C2\NC(=S)N(c3ccccc3)C2=O)ccc1O | 54%
O=C1CNC(=S)N1c1ccccc1 | 32%
COc1cccc(/C=C2\NC(=S)N(c3ccccc3)C2=O)c1 | 52%

Query string: Item under review: O=C1/C(=C/c2cccc(Oc3ccccc3)c2)NC(=S)N1c1ccccc1 . Reported inhibition?
Result string: inactive

Query string: Item under review: COc1ccc(/C=C2\NC(=S)N(c3ccccc3)C2=O)cc1 . Reported inhibition?
Result string: 56%

Query string: Item under review: O=C1/C(=C/c2ccc(Oc3ccccc3)cc2)NC(=S)N1c1ccccc1 . Reported inhibition?
Result string: inactive

Query string: Item under review: O=C1CNC(=S)N1c1cccc2ccccc12 . Reported inhibition?
Result string: 47%

Query string: Item under review: COc1ccc(/C=C2\NC(=S)N(c3ccccc3)C2=O)cc1OC . Reported inhibition?
Result string: 58%

Query string: Item under review: CSc1ccc(/C=C2\NC(=S)N(c3ccccc3)C2=O)cc1 . Reported inhibition?
Result string: 59%

====

target: Proteasome Macropain subunit (Homo sapiens) (UniProt P49721); test: Inhibition of 20s constitutive proteasome beta2 trypsin-like activity in human erythrocytes using Boc-Leu-Arg-Arg-AMC as substrate at 50 uM after 10 mins by fluorescence assay relative to control; type: cell-based
The source made the active and inactive calls. No cut-off for these calls is given here.
Observation Type: inhibition

# annotated cases, reported inhibition shown
Chemical Smiles | Test Target | inhibition
COc1ccc(/C=C2\NC(=S)N(c3ccccc3)C2=O)cc1OC | Proteasome Macropain subunit (Homo sapiens) (UniProt P49721) | 29%
O=C1/C(=C/c2ccc(Oc3ccccc3)cc2)NC(=S)N1c1ccccc1 | Proteasome Macropain subunit (Homo sapiens) (UniProt P49721) | 5%
COc1ccc(/C=C2\NC(=S)N(c3ccccc3)C2=O)cc1O | Proteasome Macropain subunit (Homo sapiens) (UniProt P49721) | 37%
COc1cc(/C=C2\NC(=S)N(c3ccccc3)C2=O)ccc1O | Proteasome Macropain subunit (Homo sapiens) (UniProt P49721) | 32%
O=C1CNC(=S)N1c1ccccc1 | Proteasome Macropain subunit (Homo sapiens) (UniProt P49721) | inactive

Query string: Item under review: COc1cccc(/C=C2\NC(=S)N(c3ccccc3)C2=O)c1 . Reported inhibition?
Result string: 36%

Query string: Item under review: O=C1CNC(=S)N1c1cccc2ccccc12 . Reported inhibition?
Result string: 38%

Query string: Item under review: O=C1/C(=C/c2cccc(Oc3ccccc3)c2)NC(=S)N1c1ccccc1 . Reported inhibition?
Result string: inactive

Query string: Item under review: O=C1/C(=C/c2ccc(Oc3ccccc3)cc2)NC(=S)N1c1cccc2ccccc12 . Reported inhibition?
Result string: 57%

Query string: Item under review: COc1ccc(/C=C2\NC(=S)N(c3ccccc3)C2=O)cc1 . Reported inhibition?
Result string: 35%

====

Target: Proteasome Macropain subunit MB1 (Homo sapiens) (UniProt P28074)
Sequence (whole entry): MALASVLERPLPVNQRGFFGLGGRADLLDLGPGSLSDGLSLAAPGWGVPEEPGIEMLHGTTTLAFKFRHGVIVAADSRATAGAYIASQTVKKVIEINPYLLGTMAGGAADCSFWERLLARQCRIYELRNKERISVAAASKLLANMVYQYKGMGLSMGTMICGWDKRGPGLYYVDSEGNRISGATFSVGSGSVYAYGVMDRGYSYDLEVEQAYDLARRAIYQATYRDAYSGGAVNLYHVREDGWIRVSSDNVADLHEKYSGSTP
Test: Inhibition of 20s constitutive proteasome beta5 chymotrypsin-like activity in human erythrocytes using Suc-Leu-Leu-Val-Tyr-AMC as substrate at 50 uM after 10 mins by fluorescence assay relative to control
Assay type: cell-based
Observation Type: inhibition

Query string: Item under review: COc1ccc(/C=C2\NC(=S)N(c3ccccc3)C2=O)cc1 . Reported inhibition?
Result string: 45%

Query string: Item under review: COc1ccc(/C=C2\NC(=S)N(c3ccccc3)C2=O)cc1O . Reported inhibition?
Result string: 45%

Query string: Item under review: O=C1/C(=C/c2ccc(Oc3ccccc3)cc2)NC(=S)N1c1ccccc1 . Reported inhibition?
Result string: 13%

Query string: Item under review: CSc1ccc(/C=C2\NC(=S)N(c3ccccc3)C2=O)cc1 . Reported inhibition?
Result string: 28%

Query string: Item under review: O=C1CNC(=S)N1c1ccccc1 . Reported inhibition?
Result string: 47%
